Measured Rel. luciferase activity (%) 3, listed per entry for reference.
# Tested on: STAT3
# Experimental Protocol: STAT3-dependent luciferase reporter assay in MDA-MB-231-STAT3 stable cells
# Assay type: cell-based, human
# Condition Parameters: 20 μM, experiment 3, relative to DMSO
# Protocol: FIG. 12. Identification of active inS3-54 analogues. (A) Effects of inS3-54 analogues on STAT3-dependent luciferase expression. […] MDA-MB-231-STAT3 stable cell line with high level of STAT3-dependent luciferase expression was exposed to candidate compounds at 20 μM in DMSO for 48 hours based on previous studies, and luciferase activity was measured using a luciferase assay kit (Promega, USA), following manufacturer's instructions. […]
Expressed in %, but write only the number.

Answered examples (3):
Cc1ccc(N2C(=O)C(=Cc3ccc([N+](=O)[O-])cc3)C=C2c2ccccc2)cc1C [Compound A30]	61.2
COc1ccc(C=C2C=C(c3ccccc3)N(c3ccc(O)cc3)C2=O)cc1	34.1
O=C1C(=Cc2ccc(Cl)cc2)C=C(c2ccccc2)N1c1ccc(-c2ccccc2)cc1	63.8

Query: Record "O=C1C(=Cc2ccc([N+](=O)[O-])cc2)C=C(c2ccccc2)N1c1ccc2ccccc2c1" : what is its Rel. luciferase activity (%) 3 with STAT3?
Reply: 64.9

Query: Can you check "CCOC(=O)c1ccc(N2C(=O)C(=Cc3ccc(Cl)cc3)C=C2c2ccccc2)cc1" next?
Reply: 74.5

Query: Consider next the compound "O=C1C(=Cc2ccc([N+](=O)[O-])cc2)C=C(c2ccccc2)N1Cc1ccccc1" in the same way.
Reply: 66.3

Query: Can you handle "O=C1C(=Cc2ccc(Cl)cc2)C=C(c2ccccc2)N1c1ccc(Cl)cc1" next?
Reply: 57.1

Query: Thanks! And "O=C(O)c1cccc(N2C(=O)C(=Cc3ccc(-c4cc(Cl)ccc4Cl)o3)C=C2c2ccccc2)c1" ?
Reply: 114.1

Query: Request: "CCN(CC)c1ccc(N2C(=O)C(=Cc3ccc([N+](=O)[O-])cc3)C=C2c2ccccc2)cc1"
Reply: 71.6

Query: Follow-up item: "Cc1ccc(N2C(=O)C(=Cc3ccc(-c4ccc([N+](=O)[O-])cc4)o3)C=C2c2ccccc2)cc1C"
Reply: 92.2

Query: Now consider "Cc1ccc(N2C(=O)C(=Cc3ccc(-c4ccc([N+](=O)[O-])cc4)o3)C=C2c2ccccc2)cc1" .
Reply: 103.4

Query: Can you check "Cc1ccccc1N1C(=O)C(=Cc2ccc(-c3ccc([N+](=O)[O-])cc3)o2)C=C1c1ccccc1" next?
Reply: 96.2

Query: Queued: "O=C1C(=Cc2ccc([N+](=O)[O-])cc2)C=C(c2ccccc2)N1c1ccccc1O"
Reply: 100.8

Query: Lookup "COc1ccc(C=C2C=C(c3ccccc3)N(c3ccc(N(C)C)cc3)C2=O)cc1"
Reply: 61.0

Query: What about O=C1C(=Cc2ccc([N+](=O)[O-])cc2)C=C(c2ccccc2)N1c1ccc(Cl)c(Cl)c1 [Compound A39] ?
Reply: 65.9

Query: Repeat for the following compound: "O=C1C(=Cc2ccc([N+](=O)[O-])cc2)C=C(c2ccccc2)N1c1ccc(Nc2ccccc2)cc1"
Reply: 90.2

Query: Same again, this time with "COc1ccc(C=C2C=C(c3ccccc3)N(c3cccc(Cl)c3Cl)C2=O)cc1"
Reply: 36.8
